B1: HDV Ribozyme (parent)
chain: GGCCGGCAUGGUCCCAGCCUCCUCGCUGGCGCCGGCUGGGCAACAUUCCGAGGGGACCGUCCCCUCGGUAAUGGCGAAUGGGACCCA

Variants of: B1
assay procedure: self-cleavage, relative activity (ratio to wild type); higher = more cleavage; co-transcriptional
Below: a set of entries, each annotated with reported self-cleavage.

Example variants with recorded self-cleavage:
C15A C84U :: 0.665
G5C C44A :: 0
G73A C86A :: 0.781
U9C C33G :: 0.249
G52C C75U :: 0.134

Query :: Record request: self-cleavage value, item G6C G34A
Result :: 0.0536

Query :: Record request: self-cleavage value, item C13A A45G
Result :: 0.158

Query :: Record request: self-cleavage value, item U37A C86G
Result :: 0.0875

Query :: Record request: self-cleavage value, item G5C A87U
Result :: 0.175

Query :: Record request: self-cleavage value, item G31C G81A
Result :: 0.0791

Query :: Record request: self-cleavage value, item U9G C24G
Result :: 0.453

Query :: Record request: self-cleavage value, item G38U C85A
Result :: 0.205
